Each recorded value in this set is attributed to patent US20140050778A1.

The following compounds are shown together with reported On-rates (kon) values.
# Tested on: (CAG)10 RNA (SEQ ID NO: 5)
# EXPERIMENTAL_PROTOCOL: SPR binding to immobilized biotinylated RNA
# MEASUREMENT_CONDITIONS: SPR
Quick note: give the figure in M⁻¹ s⁻¹, leave out the unit.

>  <SUBSTANCE_SMILES>
CCc1nc2cc3ccccc3cc2cc1C(=O)N1CCC[C@H]1C(=O)N[C@@H](C/C=C\C[C@H](NC(=O)[C@@H]1CCCN1C(=O)c1cc2cc3ccccc3cc2nc1CC)C(=O)N[C@@H](CCCCN)C(=O)NCCCN)C(=O)N[C@@H](CCCCN)C(=O)NCCCN

>  <SCALE_UNIT>
M⁻¹ s⁻¹

>  <On-rates (kon)>
35600

$$$$

Lab book: On-rates (kon) of `CCc1nc2cc3ccccc3cc2cc1C(=O)N[C@@H](CCCCN)C(=O)N[C@@H](C/C=C\C[C@H](NC(=O)[C@H](CCCCN)NC(=O)c1cc2cc3ccccc3cc2nc1CC)C(=O)N1CCC[C@H]1C(=O)NCCCN)C(=O)N1CCC[C@H]1C(=O)NCCCN` noted as 12600

On-rates (kon) for `CCc1nc2cc3ccccc3cc2cc1C(=O)N1CCC[C@H]1C(=O)N[C@@H](C/C=C/C[C@H](NC(=O)[C@@H]1CCCN1C(=O)c1cc2cc3ccccc3cc2nc1CC)C(=O)N[C@@H](CCCCN)C(=O)NCCCN)C(=O)N[C@@H](CCCCN)C(=O)NCCCN` is 50200

Entry `CCc1nc2cc3ccccc3cc2cc1C(=O)N[C@@H](CCCCN)C(=O)N[C@@H](C/C=C/C[C@H](NC(=O)[C@H](CCCCN)NC(=O)c1cc2cc3ccccc3cc2nc1CC)C(=O)N1CCC[C@H]1C(=O)NCCCN)C(=O)N1CCC[C@H]1C(=O)NCCCN` , On-rates (kon) reported as 15700

Per the records, this compound ( `NCCCC[C@H](NC(=O)[C@H](C/C=C\C[C@H](NC(=O)[C@@H]1CCCN1)C(=O)N[C@@H](CCCCN)C(=O)NCCCN)NC(=O)[C@@H]1CCCN1)C(=O)NCCCN` ) has On-rates (kon) equal to 125000
